# STUDY SYSTEM: Peroxisome proliferator-activated receptor delta (Mus musculus) (UniProt P35396)
# Sequence (P35396 whole entry, the tested form may be a part): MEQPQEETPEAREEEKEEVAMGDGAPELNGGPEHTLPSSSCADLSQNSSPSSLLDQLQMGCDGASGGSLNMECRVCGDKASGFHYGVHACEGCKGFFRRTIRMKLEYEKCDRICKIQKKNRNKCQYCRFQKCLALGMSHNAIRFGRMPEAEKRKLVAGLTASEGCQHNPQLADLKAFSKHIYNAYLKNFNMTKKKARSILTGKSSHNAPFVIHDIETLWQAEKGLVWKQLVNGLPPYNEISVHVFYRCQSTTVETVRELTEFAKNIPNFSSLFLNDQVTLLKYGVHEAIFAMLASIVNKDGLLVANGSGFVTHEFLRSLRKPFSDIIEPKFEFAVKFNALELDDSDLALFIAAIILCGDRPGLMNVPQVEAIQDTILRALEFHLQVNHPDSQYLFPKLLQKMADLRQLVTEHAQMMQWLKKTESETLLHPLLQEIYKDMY
# ASSAY TEXT: Displacement of fluormone Pan-PPAR Green from mouse recombinant GST-tagged PPARbeta/delta LBD at 1 uM after 60 mins by TR-FRET assay
Activity calls are given as the source filed them. The rule behind the calls is not given here.
READOUT TYPE: Activity

chem_smiles=N#C/C(=C\c1ccc(N2CCNCC2)cc1)c1ccccc1 study_system="Peroxisome proliferator-activated receptor delta (Mus musculus) (UniProt P35396)" result=Active
chem_smiles=CN(C)c1ccc(/C=C(\C#N)c2ccccc2C#N)cc1 study_system="Peroxisome proliferator-activated receptor delta (Mus musculus) (UniProt P35396)" result=Active
chem_smiles=N#C/C(=C\c1ccc(C(F)(F)F)cc1)c1ccccc1 study_system="Peroxisome proliferator-activated receptor delta (Mus musculus) (UniProt P35396)" result=Active
chem_smiles=N#C/C(=C\c1ccc(N2CCCCCC2)cc1)c1ccccc1 study_system="Peroxisome proliferator-activated receptor delta (Mus musculus) (UniProt P35396)" result=Active
chem_smiles=N#C/C(=C\c1ccc(N2CCCCC2)cc1)c1ccccc1 study_system="Peroxisome proliferator-activated receptor delta (Mus musculus) (UniProt P35396)" result=Active
